The reader will find reported soluble fraction (log2) values listed item by item below.
Test: soluble fraction after stress (log2 fold change); higher = more stays soluble; pooled small domains, quantitative proteomics;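 note: 20 min heating vs room temperature control held 20 min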
Conditions: stress: 75 degC
MEASURE_NAME: soluble fraction (log2)

HMDSNPLSEREQEVLQLVAKGASNQTIAEQLFLSNGTIRNYMTAIFNKLNANNRTDAVRIARENGW ... -0.207
HMDKLEKRILDYLLQKSAIDGSTILKISHREMAMDLGTAREVVTRILKKLETGGFVRQGENYLEILK ... -0.518
HMYEDIDSAYRILEINSTVSNQEIKNAYRRMAKKYHPDKVAHLGVEHQKGAEEKFKKVQEAYILIKKRRG ... -0.918
HMSGLGELTPRELEVLELMAQGLSNSQIAGRLFLSGAAVAKHVSSIFSKLGFEPGDENRRVRAILAFLNR ... -1.41
HMSDQIQQIAERIAGLRDIAGYSVEELARELGISAEEYKRYESGEVDIPIGFLYKLANKYNVELTAILT ... -0.289
HMKKTDFNVENYDIEELAAILNFKYVPLNQGLIRDRIKDMKQRFKNKPEYIKFFTDVEIKLVNNLNLFN ... -1.67
HMDIDLGAVEEQAVKGSGPGGQKMNKTSSGVLLRYRLGEELVLVKWTRERQHSLNRFLALRELVDEIEAR ... 0.976
HMTDFLKTRIDTLGLSTRTLNALSEANVRTIGGIARKKQEDLLEIDGIGEKGIQEIKKMLGEYGITL ... -0.303
HMYIDLHEIWKSLTDEEQTVVKLLETEPAHVDTLIENSQIPASRILATLTLLEVRGIVKRLPGRMFSLAD ... -3.61
HMNREYELTAEESGQRLDKYLAGEMTDLSRSRIKELVQAGEILVNGKKSKVSYKVQKDDLIQVIVLPLE ... -0.402
HMANTLDPMDLKQIISLHLDGFSNRKIGATLGISRNTVNTYMRLFSVSDYALKELLTLDNATLDKLFPS ... -2.06
HMIKILGSAYRHGLDDDDILRAWNYHIQEFFEGEDPEKIVRLGFDTHGRLLEIGGEIYPGGGEKIFHAM ... -0.733
HMPGPAEMPGWITARAKKLGGQITPEAARALAAEMGSDTEQASREIEKLLTYVDYRRPVEEEDVALLTA ... 0.16
HMHWDIAQADAKQEVMDSSDDKEAIERIQANMFKDPKDHDQEYANKILNDMIDEIKEKGLEAMQHKFAQE ... -0.443
HMRIDVWLAENGFAPSRQKAQDLIAAGRVFQTDPSGRRQKVSKASAAVDPALSPKIEVIPDPE ... -0.0608
HMNTIIHPIRLAYVDSGSIKSMAEQAEIDVKILTSEANSQIFWAIGDEKQIDRLYNLISQVDIIQNK ... -1.86
HMASMHDGVAARLRAMVFERELAPGEFIDERRLAQQWQISRTPLREALKVLAAEGLVELVPRRGARVV ... -1.12
HMETGGLAQEAERELALLQEQIAHHEALYRKGTPEISDGAFDELFDRYQELADSLGVPADERIDRA ... 0.155
HMLENSLDHIEGIGPKTKDTLLTYFKSVSKIKSANPSILAELIGAAKTKILLAAFEKEKTTS ... -0.7
HMTKDEIIIQSIIDAAKKLMQQYGLNKTTMEDIAKEAGKGKSTLYHYFKSKEEIFDQVINQEID ... 0.0589
HMNLEIGAIIKSLRAKHKYTQEQLSAFLGVTPQAVSRWEAGNGYPDIELLPAIARFFEVSTDELLGL ... -2.2
HMVAQQINDFRSERDASTGTLKRPLFDTLRDVISSRAQAYVSATGKPVTVEDLDRIYQAVEAEAKQAL ... 0.0174
HMDEFTIILEDAGSQKIAVIKEVRVLNSSLGLKEAKDLVDATPATIMEKADKATADKAKAAFEAAGAKVTI ... -0.257

* * *

Assay: soluble fraction after stress (log2 fold change); higher = more stays soluble; pooled small domains, quantitative proteomics
Conditions: stress: 75 degC
Class Condition met: soluble fraction (log2) at least -0.4. Class Condition not met: soluble fraction (log2) below -0.4.

HMEAAETAVVTGTIVNIRSGPTLDFEAFAQVKQGDRLPVLDKFYNWYYVKLPSGVNGWISGQLVRIEQ ... Condition not met
HMNSEAVQNVIDKISALPDDITAKAKSQIEEARAAYEALSDSEKARVTNYSTLVAAEKKLASVVKD ... Condition met
HMGTKRWELPRRVQQMATQHGKSISTAAAEELVSRSGENTRMLDNDLVKLAQMVEAPQIELADVERWIVR ... Condition met
HMEQTMNDMLKLVDLLPQNQQDIVRMRFYENMSFKEIAESNQISINTALGRMRYAILNLRKYAAERNL ... Condition not met
HMDAATDAIKAEVRALLEMANAQGIDTESIMLEAHEQTRNATEQDYYEAAKSALEAAIAGSNRDR ... Condition met
HMEYYWHQLKGLEVVNTRGESLGRVRRLLETGANDVLVLEGEQERLIPYVPDTIKQVDLAKGLIEVAWDRD ... Condition met
HMNPGHAERGKEIVEVFLRNNGELSMREIAEKSNITITQARRRVNKLLDQGIVEATAPVQSRNRKYRIK ... Condition met
HMTETELYDEVNRLIGLHLSERDRMILIMRDRDEFEIDAIAARTGLSEGNIRLILSRARRTVREAYRNNI ... Condition not met
HMGKVLIYKPNMSVSDVAIRLGISNAEIIKRLMGLGVMTSINQTIDRDTIELVAMDLGFSIEN ... Condition not met
HMNFGEVLQTKRKSMGLTQEDLADKLFVSSETISNWETNKTTPDIDNVIRISQLFDISLNNLLL ... Condition not met
HMLTNNYKNDKALRFAKNHGIHESNILKLVSLYENAPEKGFNAQSIAELLGITPRSASRILVKLLQHNLIR ... Condition not met
HMPGLITLEAAKTTALNHAKLTADQVTFVKQKLDRDDGRQVYEIEFYTSDYKEYDYEIDAVSGLILEVDYD ... Condition not met
HMSETAEFIIQVNGKVRAKLQLPTDISKEEIQKLALADENVQKYLNGEPRKIIFPPNTRLVSIV ... Condition met

* * *

Assay: soluble fraction after stress (log2 fold change); higher = more stays soluble; pooled small domains, quantitative proteomics
Details: stress: 75 degC
Kind request: treat -0.8 as inclusive, so soluble fraction (log2) at -0.8 or higher is Y, anything lower is N.

HMVDQVDKDRFLEALTQLGGSAGNVRLRETLQWEEEVYVIIKDALVKSGTILTGRGRGGSVLLASA ... N
HMGRPTLEQLLDRAQAMGVPRERYAAYADRRWGRGWRVNPHGRGRAWDELDRYRNDPAGYLDKIEVELNQL ... Y
HMEQIPEEYKKIYSLITDIPININDIAKKSLLELREVSSKLTMLELDGKVVKLPGNMYIRGDL ... Y
HMEPADALVAALVARGVSPSTARITVKQYPATRIQPQLEVFDYLVAQKDPKVSRNPPGFLLSAIRGEYA ... Y
HMSHRVGDVVELTAVRMNDQGVFLDAGTGNTSDDILLHKHQMTSPVSVGDKVKVQLYLDAKNRITASMKL ... Y
HMELLPAERRQQLVDWFKSNQAGTSQDLARMFGISVSTIRRDLDLLASEGLVKRTHGGAVSIR ... Y
HMRRTEKEIEQDVMRAIATIISEKGISSVTIKEVSNLSKTDVIVLERRFKNDEGLIKAYTSQ ... N
HMQWGKVRRLPSGRYQASYVHKGTRYTAPETYTVQGRAHGWIESERRLIVTDTWTPPDTRPS ... N
HMSGSPREQAESEYRKAIAAVNQGRVSEATESLRAALRLDAFQVAARQLLVKLLLEAKNQDEAIQVLR ... N
HMSSWMTKDGKIKPISKWAGVPMTSQQQADYAAGKVVELTNIPDKQGQLNTVYLKFNPEKQRPTTSLNDPR ... Y
HMEPLIRTLEEQIAEKIKNYRKGTRVYDAEHVDRWISQLPEEERMVVLTETNRLLEQNYVDQAKLME ... Y
HMGKNISEEDMLGYFKKIDLDYDAETKEVIAPTFRHDLFRLADLAEEVARFFGYDNIPTTLPSGEAT ... Y
HMKFIPPSLEEARAYFVEKGSSEPEAEKFVNHFDSIGWKVGRARTPMKKWKSAANNWIANNREWNQ ... Y
HMASLASVAYETLRQALDNFQYVPGDRFSESEVGQQLGMSRTPVREALVRLQREGYISVLPKMGWVVNQ ... N
HMLDKKKHLEQGRKIIEDQLAKYKIQPSFDTLKKLSAYYGLNNKEQLYAQVGMGFLELENLDEILQ ... Y
HMDIFFEKIFNILIGYNQNQENLISEKSILNFHLSHKSNSNFEYIPDEKTPKYIWKYLSNYNLLE ... Y
HMIMISKSFEINEDNINKRLDIFLTENLDGLSRGIVQKYISLEQITVNKESSHKDYRLKLDDFIEVKIQAH ... N
